# method_notes: Oligonucleotide concentrations in tissues by LC-MS/MS after oral gavage in CD-1 mice (Example 7)
# Format: in vivo
# measurement_setup: 500 mg/kg oral gavage once daily for 4 weeks, 48 hours after last dose, kidney
endpoint_label: Oligonucleotide concentration, Kidney
# output: number + unit

The examples below pair each entry with its known result.
# substance, result
records = [
    ("830121 (AGAATCAAGCCCTGGC; 3-10-3 cEt gapmer, further chemistry not given here) [compound 830121]", "13.2 µg/g"),
    ("830025 (antisense TTTGTAAATCGAAAGC; 3-10-3 cEt gapmer, further chemistry not given here) [compound 830025]", "21.5 µg/g"),
    ("798781 (CGTAAGATTCACAGCA; 3-10-3 cEt gapmer, further chemistry not given here) [compound 798781]", "45.2 µg/g"),
]

Could you report Oligonucleotide concentration, Kidney for every entry in the following list?
1. 829994 (GGAGGCAGGGCCGCGA; 3-10-3 cEt gapmer, further chemistry not given here) [compound 829994]
2. 830037 (antisense CTATTGGCTGATCTGG; 3-10-3 cEt gapmer, further chemistry not given here) [compound 830037]

// result
["9.8 µg/g", "32.4 µg/g"]

// query Given the entry 790615 (CCAATGAGAATGCTTC; 3-10-3 cEt gapmer, further chemistry not given here) [compound 790615] , report its measured Oligonucleotide concentration, Kidney.
// result 23.6 µg/g

Values compiled from patent US10517889B2.
